# Test system: p-ERK of PC-9 cells
# protocol-description: p-ERK HTRF assay in PC-9 cells
# Assay type: cell-based
# reported-conditions: Homo sapiens, PC-9, 1 h, PC-9 lung cancer cells, 1 hour treatment, read-out: IC50, inhibitory activity on p-ERK of PC-9 cells
pIC50: −log10 of the molar value.
assay-metric: pIC50

Worked set:
Cc1nc(N2CCCCS2(=O)=O)cc2c(N[C@H](C)c3cccc(C(F)F)c3F)ccnc12 : 6.00 to 6.52
COC[C@@H]1CN(C(C)=O)CCN1c1cc2c(N[C@H](C)c3cccc(C(F)F)c3F)ccnc2cn1 : ≥ 6.52
C[C@@H](Nc1ccnc2cnc(C3(O)CCN(C(=O)CN4CC[C@@H](O)C4)CC3)cc12)c1cccc(C(F)F)c1F : < 6.00

For each entry beneath this line, provide reported pIC50.
1. CC(=O)N1CCC(c2cc(F)c3nccc(N[C@H](C)c4cccc(C(F)F)c4F)c3c2)CC1
2. C[C@H](O)C(=O)N1CCC(O)(c2cc3c(N[C@H](C)c4cccc(C(C)(F)F)c4F)ccnc3cn2)CC1
3. C[C@@H](Nc1ccnc2cnc(C3(O)CCN(C(=O)N(C)CCO)CC3)cc12)c1cccc(C(F)F)c1F
4. C[C@@H](Nc1ccnc2cnc(C3CC3)cc12)c1cccc(C(F)F)c1F

["≥ 6.52", "≥ 6.52", "≥ 6.52", "6.00 to 6.52"]
